molecules and their reported residual activity
Target: PLK2 (human)
Test: radiometric filter-binding kinase assay, Kinase HotSpot
Conditions: compound 0.5 µM; ATP 10 µM

{"molecule": "O=C1NC(=O)c2c1c1c3ccccc3n3c1c1c2c2ccccc2n1C1CCC3O1", "tested.system": "PLK2 (human)", "residual activity": "62.4%"}
{"molecule": "COc1ccc2c(c[n+](C)c3c4cc5c(cc4ccc23)OCO5)c1OC", "tested.system": "PLK2 (human)", "residual activity": "97.6%"}
{"molecule": "COc1cc2ncnc(Nc3cccc(Cl)c3)c2cc1OC", "tested.system": "PLK2 (human)", "residual activity": "102%"}
{"molecule": "CCCC(=O)Oc1ccc2[nH]c(C(=O)c3cc4ccccc4[nH]3)cc2c1", "tested.system": "PLK2 (human)", "residual activity": "101%"}
{"molecule": "Cc1[nH]c(/C=C2\\C(=O)Nc3ccc(S(=O)(=O)N(C)c4cccc(Cl)c4)cc32)c(C)c1C(=O)N1CCN(C)CC1", "tested.system": "PLK2 (human)", "residual activity": "96.4%"}
{"molecule": "Nc1ncnc2c1c(-c1ccc(Oc3ccccc3)cc1)cn2C1CCCC1", "tested.system": "PLK2 (human)", "residual activity": "92.5%"}
{"molecule": "CCOC(=O)c1c(C)[nH]c(/C=C2\\C(=O)Nc3ccccc32)c1C", "tested.system": "PLK2 (human)", "residual activity": "102%"}
{"molecule": "c1ccc(-c2n[nH]cc2-c2ccnc3ccccc23)nc1", "tested.system": "PLK2 (human)", "residual activity": "98.9%"}
{"molecule": "O=C1NC(=O)/C(=C/c2ccc3c(c2)OC(F)(F)O3)S1", "tested.system": "PLK2 (human)", "residual activity": "99.7%"}
{"molecule": "O=S(=O)(c1cccc2cnccc12)N1CCCNCC1", "tested.system": "PLK2 (human)", "residual activity": "100%"}
{"molecule": "Nc1ccc2ncnc(NCCc3ccc(Oc4ccccc4)cc3)c2c1", "tested.system": "PLK2 (human)", "residual activity": "102%"}
{"molecule": "CCN(CC)C(=O)c1ccc(Nc2nc(OCC3CCCCC3)c3nc[nH]c3n2)cc1", "tested.system": "PLK2 (human)", "residual activity": "98.2%"}
{"molecule": "CNC(=O)c1cc(Oc2ccc(NC(=O)Nc3ccc(Cl)c(C(F)(F)F)c3)cc2)ccn1", "tested.system": "PLK2 (human)", "residual activity": "101%"}
{"molecule": "Cc1ccc(NC2=CC(=O)c3sc(C)nc3C2=O)cc1", "tested.system": "PLK2 (human)", "residual activity": "95.1%"}
{"molecule": "CCN(CC)CCNC(=O)c1c(C)[nH]c(/C=C2\\C(=O)Nc3ccc(F)cc32)c1C", "tested.system": "PLK2 (human)", "residual activity": "99.2%"}
{"molecule": "CNc1cc2c(Nc3cccc(Br)c3)ncnc2cn1", "tested.system": "PLK2 (human)", "residual activity": "97.5%"}
{"molecule": "O=C1NC(=O)C(c2cn(CCCn3ccnc3)c3ccccc23)=C1Nc1ccccc1", "tested.system": "PLK2 (human)", "residual activity": "101%"}
{"molecule": "CC(C)N(CCC(=O)c1ccc2ccccc2c1)Cc1ccccc1", "tested.system": "PLK2 (human)", "residual activity": "97%"}
{"molecule": "O=C1Nc2ccc(Cl)cc2/C1=C/c1cc(Cl)c(O)c(Cl)c1", "tested.system": "PLK2 (human)", "residual activity": "95.4%"}
{"molecule": "O=C(Nc1cccc(Nc2nccc(Nc3cccc(C(F)(F)F)c3)n2)c1)C1CC1", "tested.system": "PLK2 (human)", "residual activity": "99.5%"}
{"molecule": "Nc1cccc(-c2cc3c(Oc4cccc(O)c4)ncnc3[nH]2)c1", "tested.system": "PLK2 (human)", "residual activity": "106%"}
{"molecule": "CC[n+]1c(/C=C/N(C)c2ccccc2)n(-c2ccccc2)c2ccc(-c3nc4ccccc4s3)cc21", "tested.system": "PLK2 (human)", "residual activity": "93.1%"}
{"molecule": "Nc1ncnc2[nH]nc(Nc3ccc(F)cc3)c12", "tested.system": "PLK2 (human)", "residual activity": "101%"}
{"molecule": "CO[C@H]1CC2CC[C@@H](C)[C@@](O)(O2)C(=O)C(=O)N2CCCC[C@H]2C(=O)OC([C@H](C)C[C@@H]2CC[C@@H](O)[C@H](OC)C2)CC(=O)[C@H](C)/C=C(\\C)[C@@H](O)[C@@H](OC)C(=O)[C@H](C)C[C@H](C)/C=C/C=C/C=C/1C (stereo partly specified)", "tested.system": "PLK2 (human)", "residual activity": "105%"}
{"molecule": "Cc1ccc(Nc2nccc(N(C)c3ccc4c(C)n(C)nc4c3)n2)cc1S(N)(=O)=O", "tested.system": "PLK2 (human)", "residual activity": "101%"}
{"molecule": "CCC(=O)Nc1ccc2ncnc(Nc3cccc(Br)c3)c2c1", "tested.system": "PLK2 (human)", "residual activity": "108%"}
{"molecule": "Cc1ccc(S(=O)(=O)/C=C/C#N)cc1", "tested.system": "PLK2 (human)", "residual activity": "103%"}
{"molecule": "O=c1cc(N2CCOCC2)oc2c1ccc1ccccc12", "tested.system": "PLK2 (human)", "residual activity": "106%"}
{"molecule": "CCN(CC)CCNC(=O)c1c(C)[nH]c(/C=C2\\C(=O)Nc3ccc(Cl)cc32)c1C", "tested.system": "PLK2 (human)", "residual activity": "91.2%"}
{"molecule": "Oc1cccc(-c2nc(N3CCOCC3)c3oc4ncccc4c3n2)c1", "tested.system": "PLK2 (human)", "residual activity": "94.7%"}
{"molecule": "N#CC(C#N)=C(N)/C(C#N)=C/c1ccc(O)cc1", "tested.system": "PLK2 (human)", "residual activity": "99.9%"}
{"molecule": "c1ccc(-c2n[nH]c3c2oc2ccccc23)cc1", "tested.system": "PLK2 (human)", "residual activity": "102%"}
{"molecule": "CC#CC(=O)Nc1cc2c(Nc3ccc(F)c(Cl)c3)ncnc2cn1", "tested.system": "PLK2 (human)", "residual activity": "103%"}
{"molecule": "COc1ccc(COc2ccc(Cc3cnc(N)nc3N)cc2OC)cc1", "tested.system": "PLK2 (human)", "residual activity": "116%"}
{"molecule": "N#C/C(=C(/N)Sc1ccc(N)cc1)c1ccccc1C(F)(F)F", "tested.system": "PLK2 (human)", "residual activity": "98.1%"}
{"molecule": "CC(=O)c1ccc(N2CCOCC2)cc1O", "tested.system": "PLK2 (human)", "residual activity": "104%"}

Attribution: the kinase profiling compilation of Christmann-Franck et al. (2016)
